Recorded measurements of ED50, one per entry
- System: Streptococcus pyogenes
- procedure.details: Subcutaneously administration into mice infected with Streptococcus pyogenes C 203
- Type: functional
- protocol.conditions: sc
Your answer should be a plain number; it is taken to be in mg/kg.

CNCCCN(C)C(=O)[C@H]1NC(=O)[C@H]2NC(=O)[C@H](NC(=O)[C@@H]3NC(=O)[C@H]4NC(=O)[C@@H](Cc5ccc(c(Cl)c5)Oc5cc3cc(c5O)Oc3ccc(cc3Cl)[C@H]2O)NC(=O)[C@H](N)c2ccc(O)c(c2)Oc2cc(O)cc4c2)c2ccc(O)c(c2)-c2c(O)cc(O)cc21: 0.95

What value of ED50 has been recorded for this entry: `N[C@H]1C(=O)N[C@@H]2Cc3ccc(c(Cl)c3)Oc3cc4cc(c3O)Oc3ccc(cc3Cl)[C@@H](O)[C@@H]3NC(=O)[C@H](NC(=O)[C@@H]4NC(=O)[C@@H](NC2=O)c2cc(O)cc(c2)Oc2cc1ccc2O)c1ccc(O)c(c1)-c1c(O)cc(O)cc1[C@@H](C(=O)NCCN1CCOCC1)NC3=O`
2.2

Sample `CCNCCCNC(=O)[C@H]1NC(=O)[C@H]2NC(=O)[C@H](NC(=O)[C@@H]3NC(=O)[C@H]4NC(=O)[C@@H](Cc5ccc(c(Cl)c5)Oc5cc3cc(c5O[C@@H]3O[C@@H](CO)[C@@H](O)[C@H](O)[C@@H]3NC(=O)CCCCCCC(C)C)Oc3ccc(cc3Cl)[C@H]2O[C@@H]2O[C@@H](CO)[C@@H](O)[C@H](O)[C@@H]2NC(C)=O)NC(=O)[C@H](N)c2ccc(O)c(c2)Oc2cc(O)cc4c2)c2ccc(O)c(c2)-c2c(O[C@H]3O[C@H](CO)[C@@H](O)[C@@H](O)[C@@H]3O)cc(O)cc21` — what was its ED50?
0.1

----------
- Test system: Enterococcus faecalis
- procedure.details: In vitro minimum inhibitory concentration against Streptococcus faecalis ATCC 7080
- Format: functional
The reader will find reported MIC values listed item by item below.
Lab note: write values as number then unit, every time.

CC(=O)N[C@@H]1[C@H](O[C@@H]2c3ccc(c(Cl)c3)Oc3cc4cc(c3O[C@@H]3O[C@@H](CO)[C@@H](O)[C@H](O)[C@@H]3NC(=O)CCCCCCC(C)C)Oc3ccc(cc3Cl)C[C@H]3NC(=O)[C@H](N)c5ccc(O)c(c5)Oc5cc(O)cc(c5)[C@H](NC3=O)C(=O)N[C@H]4C(=O)N[C@H]3C(=O)N[C@@H]2C(=O)N[C@H](C(=O)N2CCN(C)CC2)c2cc(O)cc(O[C@H]4O[C@H](CO)[C@@H](O)[C@@H](O)[C@@H]4O)c2-c2cc3ccc2O)O[C@@H](CO)[C@@H](O)[C@@H]1O: 0.06 µg/mL
CNCCCNC(=O)[C@H]1NC(=O)[C@H]2NC(=O)[C@H](NC(=O)[C@@H]3NC(=O)[C@H]4NC(=O)[C@@H](Cc5ccc(c(Cl)c5)Oc5cc3cc(c5O[C@@H]3O[C@@H](CO)[C@@H](O)[C@H](O)[C@@H]3NC(=O)CCCCCCC(C)C)Oc3ccc(cc3Cl)[C@H]2O[C@@H]2O[C@@H](CO)[C@@H](O)[C@H](O)[C@@H]2NC(C)=O)NC(=O)[C@H](N)c2ccc(O)c(c2)Oc2cc(O)cc4c2)c2ccc(O)c(c2)-c2c(O[C@H]3O[C@H](CO)[C@@H](O)[C@@H](O)[C@@H]3O)cc(O)cc21: 0.12 µg/mL
CC(=O)N[C@@H]1[C@H](O[C@@H]2c3ccc(c(Cl)c3)Oc3cc4cc(c3O[C@@H]3O[C@@H](CO)[C@@H](O)[C@H](O)[C@@H]3NC(=O)CCCCCCC(C)C)Oc3ccc(cc3Cl)C[C@H]3NC(=O)[C@H](N)c5ccc(O)c(c5)Oc5cc(O)cc(c5)[C@H](NC3=O)C(=O)N[C@H]4C(=O)N[C@H]3C(=O)N[C@@H]2C(=O)N[C@H](C(=O)NCCCN)c2cc(O)cc(O[C@H]4O[C@H](CO)[C@@H](O)[C@@H](O)[C@@H]4O)c2-c2cc3ccc2O)O[C@@H](CO)[C@@H](O)[C@@H]1O: 0.12 µg/mL

API: the following record is the query input.
Sample `CC(=O)N[C@@H]1[C@H](O[C@@H]2c3ccc(c(Cl)c3)Oc3cc4cc(c3O)Oc3ccc(cc3Cl)C[C@H]3NC(=O)[C@H](N)c5ccc(O)c(c5)Oc5cc(O)cc(c5)[C@H](NC3=O)C(=O)N[C@H]4C(=O)N[C@H]3C(=O)N[C@@H]2C(=O)N[C@H](C(=O)NCCCN(C)C)c2cc(O)cc(O[C@H]4O[C@H](CO)[C@@H](O)[C@@H](O)[C@@H]4O)c2-c2cc3ccc2O)O[C@@H](CO)[C@@H](O)[C@@H]1O` — what was its MIC?
1 µg/mL

----------
Quick list: ED50 per entry.
- Test system: Streptococcus pyogenes
- procedure.details: Subcutaneously administration into mice infected with Streptococcus pyogenes C 203
- Format: functional
- protocol.conditions: sc
# number only, unit mg/kg dropped from output

Sample answers from the record:
CC(=O)N[C@@H]1[C@H](O[C@@H]2c3ccc(c(Cl)c3)Oc3cc4cc(c3O[C@@H]3O[C@@H](CO)[C@@H](O)[C@H](O)[C@@H]3NC(=O)CCCCCCC(C)C)Oc3ccc(cc3Cl)C[C@H]3NC(=O)[C@H](N)c5ccc(O)c(c5)Oc5cc(O)cc(c5)[C@H](NC3=O)C(=O)N[C@H]4C(=O)N[C@H]3C(=O)N[C@@H]2C(=O)N[C@H](C(=O)NC2CCN(Cc4ccccc4)CC2)c2cc(O)cc(O[C@H]4O[C@H](CO)[C@@H](O)[C@@H](O)[C@@H]4O)c2-c2cc3ccc2O)O[C@@H](CO)[C@@H](O)[C@@H]1O: 0.08
CC(=O)N[C@@H]1[C@H](O[C@@H]2c3ccc(c(Cl)c3)Oc3cc4cc(c3O[C@@H]3O[C@@H](CO)[C@@H](O)[C@H](O)[C@@H]3NC(=O)CCCCCCC(C)C)Oc3ccc(cc3Cl)C[C@H]3NC(=O)[C@H](N)c5ccc(O)c(c5)Oc5cc(O)cc(c5)[C@H](NC3=O)C(=O)N[C@H]4C(=O)N[C@H]3C(=O)N[C@@H]2C(=O)N[C@H](C(=O)NCCCCCCN)c2cc(O)cc(O[C@H]4O[C@H](CO)[C@@H](O)[C@@H](O)[C@@H]4O)c2-c2cc3ccc2O)O[C@@H](CO)[C@@H](O)[C@@H]1O: 0.14
CC(=O)N[C@@H]1[C@H](O[C@@H]2c3ccc(c(Cl)c3)Oc3cc4cc(c3O)Oc3ccc(cc3Cl)C[C@H]3NC(=O)[C@H](N)c5ccc(O)c(c5)Oc5cc(O)cc(c5)[C@H](NC3=O)C(=O)N[C@H]4C(=O)N[C@H]3C(=O)N[C@@H]2C(=O)N[C@H](C(=O)NCCCN(C)C)c2cc(O)cc(O[C@H]4O[C@H](CO)[C@@H](O)[C@@H](O)[C@@H]4O)c2-c2cc3ccc2O)O[C@@H](CO)[C@@H](O)[C@@H]1O: 0.81
CNCCCNC(=O)[C@H]1NC(=O)[C@H]2NC(=O)[C@H](NC(=O)[C@@H]3NC(=O)[C@H]4NC(=O)[C@@H](Cc5ccc(c(Cl)c5)Oc5cc3cc(c5O)Oc3ccc(cc3Cl)[C@H]2O)NC(=O)[C@H](N)c2ccc(O)c(c2)Oc2cc(O)cc4c2)c2ccc(O)c(c2)-c2c(O)cc(O)cc21: 0.95

# evaluate next
Please state recorded ED50 (tested on Streptococcus pyogenes) of CCN1CCCC1CNC(=O)[C@H]1NC(=O)[C@H]2NC(=O)[C@H](NC(=O)[C@@H]3NC(=O)[C@H]4NC(=O)[C@@H](Cc5ccc(c(Cl)c5)Oc5cc3cc(c5O)Oc3ccc(cc3Cl)[C@H]2O)NC(=O)[C@H](N)c2ccc(O)c(c2)Oc2cc(O)cc4c2)c2ccc(O)c(c2)-c2c(O)cc(O)cc21 (stereo not given in full)
1.25

----------
- Tested on: Enterococcus faecalis
- procedure.details: In vitro minimum inhibitory concentration against Streptococcus faecalis ATCC 7080
- Type: functional
measured.attribute: MIC (mg/L)
Kindly provide the numeric value in mg/L only, without the unit symbol.

CCN1CCCC1CNC(=O)[C@H]1NC(=O)[C@H]2NC(=O)[C@H](NC(=O)[C@@H]3NC(=O)[C@H]4NC(=O)[C@@H](Cc5ccc(c(Cl)c5)Oc5cc3cc(c5O)Oc3ccc(cc3Cl)[C@H]2O)NC(=O)[C@H](N)c2ccc(O)c(c2)Oc2cc(O)cc4c2)c2ccc(O)c(c2)-c2c(O)cc(O)cc21 (stereo partly drawn): 0.12
CCOC(=O)CNC(=O)[C@H]1NC(=O)[C@H]2NC(=O)[C@H](NC(=O)[C@@H]3NC(=O)[C@H]4NC(=O)[C@@H](Cc5ccc(c(Cl)c5)Oc5cc3cc(c5O)Oc3ccc(cc3Cl)[C@H]2O[C@@H]2O[C@@H](CO)[C@@H](O)[C@H](O)[C@@H]2NC(C)=O)NC(=O)[C@H](N)c2ccc(O)c(c2)Oc2cc(O)cc4c2)c2ccc(O)c(c2)-c2c(O)cc(O)cc21: 1

Let us examine a further case.
Any idea what MIC came out for CC(=O)NC1C(O[C@@H]2c3ccc(c(Cl)c3)Oc3cc4cc(c3O)Oc3ccc(cc3Cl)C[C@H]3NC(=O)[C@H](N)c5ccc(O)c(c5)Oc5cc(O)cc(c5)[C@H](NC3=O)C(=O)N[C@H]4C(=O)N[C@H]3C(=O)N[C@@H]2C(=O)N[C@H](C(=O)NCCN2CCOCC2)c2cc(O)cc(O)c2-c2cc3ccc2O)OC(CO)C(O)C1O (stereo partly drawn) on Enterococcus faecalis?
0.5
